# Subject of test: SapB (saposin B; sphingolipid activator protein B) (Homo sapiens, UniProt P07602)
# Sequence (P07602 195-273): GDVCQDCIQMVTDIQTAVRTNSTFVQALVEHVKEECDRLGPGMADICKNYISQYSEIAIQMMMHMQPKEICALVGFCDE
# Experiment: NBD fluorescence equilibrium binding (pH […] days), weak
# Design: gene PSAP; mature saposin B, E. coli expressed
pKd: −log10 of the molar value.
Test readout: pKd

Find the recorded pKd belonging to CCCCCCCCCCCCCCC[C@@H](O)[C@H](CO)NC(=O)CCCCCCCCCCCNc1ccc([N+](=O)[O-])c2nonc12 [Cer-NBD] and report it.
< 4.02
